protocol_description: Oral bioavailability study, AA in rat serum
Assay type: in vivo, wistar rats
experimental_conditions: Wistar, single oral dose ~100 mg/kg AA
property_label: Cmax (ng/mL)

[[record]]
compound = "C[C@H]1[C@H](C)CC[C@]2(C(=O)O)CC[C@]3(C)C(=CC[C@@H]4[C@@]5(C)C[C@@H](O)[C@H](O)[C@@](C)(CO)[C@@H]5CC[C@]43C)[C@H]12 [AA, Asiatic acid]"
property_label = "Cmax"
measured = 3430


---

protocol_description: Oral bioavailability study, AA in rat serum
Assay type: in vivo, wistar rats
experimental_conditions: Wistar, single oral dose ~100 mg/kg AA, read-out: Elimination rate constant (Kel) (converted)
property_label: k el (s⁻¹)

[[record]]
chem_smiles = "C[C@H]1[C@H](C)CC[C@]2(C(=O)O)CC[C@]3(C)C(=CC[C@@H]4[C@@]5(C)C[C@@H](O)[C@H](O)[C@@](C)(CO)[C@@H]5CC[C@]43C)[C@H]12"
property_label = "k el"
measured = 0.000142

